# test.target: UniProt P47747
# assay.notes: cell-based
# Parameters: species or system guinea pig
# measurement.conditions: marked *; result of only one experiment; vs histamine dose-response, 32° C., pH 7.4; read-out: KB value
Friendly reminder: Kb below 0.01 µM is TRUE, at or above is FALSE.

# example entries with known answers
NC(N)=Nc1nc(CSCCNC2=NS(=O)(=O)c3cscc32)cs1
FALSE
CN(C)Cc1ccc(CSCCNC2=NS(=O)(=O)c3cscc32)o1
TRUE
O=S1(=O)N=C(NCCCOc2cccc(CN3CCCCC3)c2)c2cscc21
TRUE
CCCCN(CCC)Cc1cccc(OCCCNC2=NS(=O)(=O)c3ccccc32)c1
FALSE

Please find the next compound below.
// query In plain terms, does CCCCN(C)Cc1cccc(OCCCNC2=NS(=O)(=O)c3ccccc32)c1 come in under 0.01 µM for Kb?
// result FALSE

----------
For each entry below, report its Kb value.
# test.target: H2 histamine receptors (Cavia porcellus)
# Sequence (P47747 whole entry): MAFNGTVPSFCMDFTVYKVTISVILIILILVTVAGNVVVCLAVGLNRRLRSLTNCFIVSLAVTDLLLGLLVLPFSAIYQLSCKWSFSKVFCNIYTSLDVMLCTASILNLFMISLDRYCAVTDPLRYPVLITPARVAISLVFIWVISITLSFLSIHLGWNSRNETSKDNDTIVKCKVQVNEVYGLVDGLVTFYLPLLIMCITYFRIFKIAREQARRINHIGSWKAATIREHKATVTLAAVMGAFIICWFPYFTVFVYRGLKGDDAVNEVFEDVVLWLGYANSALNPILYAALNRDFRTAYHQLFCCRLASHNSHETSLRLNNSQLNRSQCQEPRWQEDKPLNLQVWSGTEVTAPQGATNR
# assay.notes: cell-based
# Set-up: species or system guinea pig
# measurement.conditions: vs histamine dose-response; 30 min after addition; 32° C., pH 7.4; results of three experiments; read-out: pA2 Value (apparent dissociation constant of the H2 antagonist) (converted)
Counter-ions that a name gives are not always drawn.

Would you please look over these solved cases?
Cl.O=S1(=O)N=C(NCCCOc2ccc(CN3CCCCC3)cc2)c2ccccc21 [Example 38, hydrochloride]
23.4 nM
Cc1ccc2c(c1)C(NCCCOc1cccc(CN3CCCCC3)c1)=NS2(=O)=O [Example 10]
50.1 nM
CC(C)CN(Cc1cccc(OCCCNC2=NS(=O)(=O)c3ccccc32)c1)CC(C)C [Example 31]
63.1 nM

// query Fill in: Kb of O=S1(=O)N=C(NCCCOc2cccc(CN3CCSCC3)c2)c2ccccc21 [Example 23, hydrochloride] is ___
// result 25.1 nM

----------
# test.target: H2 histamine receptors (Cavia porcellus)
# assay.notes: cell-based
# Set-up: species or system guinea pig
# measurement.conditions: vs histamine dose-response; 30 min after addition; 32° C., pH 7.4; results of three experiments; read-out: pA2 Value (apparent dissociation constant of the H2 antagonist) (converted)
Structures can show the parent of a compound that is named as a salt.
Friendly reminder: Kb below 40 nM is Y, at or above is N.

# example entries with known answers
Nc1ccc2c(c1)S(=O)(=O)N=C2NCCCOc1cccc(CN2CCCCC2)c1
Y
CCN(CC)Cc1cccc(OCCCNC2=NS(=O)(=O)c3ccccc32)c1 [Example 19, hydrochloride]
N
O=S1(=O)N=C(NCCCOc2cccc(CNC3CCCCC3)c2)c2ccccc21 [Example 27, hydrochloride]
N

Please find the next molecule below.
// query In plain terms, does CN(C)Cc1cccc(OCCCNC2=NS(=O)(=O)c3ccccc32)c1 [Example 21, hydrochloride, hemihydrate] come in under 40 nM for Kb?
// result N
